Entries and their pKd
- Assayed system: T1, human CD20 antigen (human, UniProt P11836 1-297)
- T1 construct: whole, on cells; also called CD20 on Raji cells; CD20/CHO cells
- T1 sequence (looked up): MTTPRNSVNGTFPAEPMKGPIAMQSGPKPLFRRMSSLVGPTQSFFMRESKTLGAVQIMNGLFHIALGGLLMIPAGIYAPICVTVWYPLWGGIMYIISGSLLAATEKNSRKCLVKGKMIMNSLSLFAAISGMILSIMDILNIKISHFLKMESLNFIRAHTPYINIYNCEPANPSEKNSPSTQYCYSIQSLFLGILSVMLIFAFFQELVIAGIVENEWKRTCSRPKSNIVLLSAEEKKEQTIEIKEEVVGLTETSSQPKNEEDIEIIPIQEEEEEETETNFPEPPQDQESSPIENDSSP
- Assay text: Scatchard analysis on Raji cells (Example 3), average over the clones of the construct
pKd: −log10 of the molar value.
Quantity kind: pKd

- humanized 1K1791 antibody fv (FraL x VenH) (antibody, V domains shown, Kappa, gamma 1 construct; also called hz1791 fv; Fv010) VH: QIQLVQSGPELKKPGASVKISCKASGYTFTNFGVNWVKQAPGKGLKWMGWINTYTGEPSYADDFKGRFAFSLDASVSTAYLQISSLKAEDTSTYFCTRRTNYYGTSYYYAMDYWGQGTTVTVSS VL: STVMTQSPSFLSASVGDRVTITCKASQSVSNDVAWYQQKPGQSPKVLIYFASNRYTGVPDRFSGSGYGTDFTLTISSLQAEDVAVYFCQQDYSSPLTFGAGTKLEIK: 8.14
- humanized 1K1791 antibody sv (SdrL x VenH) (antibody, V domains shown, Kappa, gamma 1 construct; also called hz1791 sv; Sv015) VH: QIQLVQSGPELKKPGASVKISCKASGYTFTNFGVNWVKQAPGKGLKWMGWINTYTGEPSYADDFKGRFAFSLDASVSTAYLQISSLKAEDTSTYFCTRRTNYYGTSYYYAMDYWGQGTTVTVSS VL: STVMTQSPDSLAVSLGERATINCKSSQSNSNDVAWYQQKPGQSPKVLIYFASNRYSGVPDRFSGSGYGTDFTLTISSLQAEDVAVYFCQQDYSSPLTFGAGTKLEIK: 7.90
- humanized 1K1791 antibody va (VenL x AbbH) (antibody, V domains shown, Kappa, gamma 1 construct; also called hz1791 va; Va016) VH: QIQLVQSGSELKKPGASVKVSCKASGYTFTNFGVNWVRQAPGKGLEWMGWINTYTGEPSYAQGFTGRFVFSLDASVSTAYLQISSLKAEDTATYFCTRRTNYYGTSYYYAMDYWGQGTTVTVSS VL: STVMTQSPDSLAVSLGERVTINCKASQSVSNDVAWYQQKPGQSPKVLIYFASNRYTGVPDRFSGSGYGTDFTFTISSVQAEDVAVYFCQQDYSSPLTFGAGTKLELK: 7.99
